# System: NCI-H125
# protocol details: cells
# Assay type: cell-based
# stated conditions: read-out: IC50
assay endpoint: IC50 (µM)
Write the number in µM without appending the unit.

### Prompt Given the entry N.N.[Cl][Pt][Cl] [Cisplatin, cisplatin, reference compound] , what IC50 was observed with NCI-H125?
### Response 7

---

# Test system: U1285
# protocol details: cells
# Type: cell-based
assay endpoint: IC50 (nM)
Provide only the numeric value, understood in nM.

Study these solved cases before continuing.
compound: CC[C@@]1(O)C(=O)OCc2c1cc1n(c2=O)Cc2cc3c(CN(C)C)c(O)ccc3nc2-1 [Topotecan, topotecan, reference compound]
test system: U1285
unit spec: nM
IC50: 170
//
compound: COc1cccc2c1C(=O)c1c(O)c3c(c(O)c1C2=O)C[C@@](O)(C(=O)CO)C[C@@H]3O[C@H]1C[C@H](N)[C@H](O)[C@H](C)O1
test system: U1285
unit spec: nM
IC50: 520

Kindly consider the entry below.
### Prompt // query IC50 value for entry "CC(=O)O[C@@]12CO[C@@H]1C[C@H](O)[C@@]1(C)C(=O)[C@H](O)C3=C(C)[C@@H](OC(=O)[C@H](O)[C@@H](NC(=O)OC(C)(C)C)c4ccccc4)C[C@@](O)([C@@H](OC(=O)c4ccccc4)[C@H]21)C3(C)C"
### Response 100

Hey, just so you know, these numbers are from patent EP1290011B1.
